Source listed as patent US20230295310A1.

molecular target: T1, human CD3 expressed on cells (human, UniProt P07766 23-207; P04234 22-171; P09693 23-182); assay: flow cytometry, 25 nM
T1 construct: whole, on cells; CD3 complex on Jurkat cells and on human primary T cells
T1 sequence (P07766 23-207, chain 1 of 3): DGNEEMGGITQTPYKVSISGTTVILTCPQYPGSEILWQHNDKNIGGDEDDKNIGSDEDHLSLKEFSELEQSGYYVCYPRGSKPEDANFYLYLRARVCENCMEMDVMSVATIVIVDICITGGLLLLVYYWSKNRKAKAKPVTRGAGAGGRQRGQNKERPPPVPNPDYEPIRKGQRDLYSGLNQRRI
T1 sequence (P04234 22-171, chain 2 of 3): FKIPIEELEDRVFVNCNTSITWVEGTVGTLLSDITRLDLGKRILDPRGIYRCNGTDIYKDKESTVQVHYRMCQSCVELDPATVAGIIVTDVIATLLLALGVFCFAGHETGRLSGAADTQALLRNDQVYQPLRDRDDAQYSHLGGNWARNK
T1 sequence (P09693 23-182, chain 3 of 3): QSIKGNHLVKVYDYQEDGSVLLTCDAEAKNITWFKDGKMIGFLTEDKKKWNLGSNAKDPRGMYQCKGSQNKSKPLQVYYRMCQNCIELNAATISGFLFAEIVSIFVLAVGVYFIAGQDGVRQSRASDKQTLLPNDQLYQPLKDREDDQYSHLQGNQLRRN
Reported Property: Human primary T Cell Binding (FOI)
Kindly answer with a numeric value in FOI, unit omitted.

mAb 72 (antibody, V domains shown) VH: EVQLVDSGGGLVQPGGSLRLSCAASGFTFSSYWMSWVRQAPGKGLEWVANIKQDGSEKYYVDSVKGRFTISRDNVKNSLSLEMNSLRAEDTALYYCARDESSSWYWYFDLWGRGTLVTVSS VL: DIQMTQSPSTLSASVGDRVTITCRASQSISKWLAWYQQKPGKAPKLLIYKASSLENGVPSRFSGSGSGTEFTLTISSLQPDDFATYYCQQYSSYSRTFGQGTKVEIK = 91.4
mAb 110 (antibody, V domains shown) VH: QVQLVESGGGVVQPGRSLRLSCAASGFTFRSYGMHWVRQAPGKGLEWVAIIWYNGNKKDYVDSVKGRFTISRDNSKNMLYLQMNSLRAEDTALYYCARGPGYNWFDPWGQGTLVTVSS VL: DIQMTQSPPSLSASVGDRVTITCRASQRISSYLNWYQQRPGKAPKLLIYAASSLQSGVPSRFSGSGSGTDFTLTISSLQPEDFATYYCQQTDSFPLTFGGGTKVEII = 214
mAb 51 (antibody, V domains shown) VH: EVQLVESGGGLVQPGGSLRLSCAASGFTLSSYTMNWVRQAPGKGLEWVSYISSSSRTIYYSDSVKGRFSISRDNAKNSLYLQMNSLRDEDTALYYCAREDYYDSSGFDNWGQGTLVTVSS VL: AIRMTQSPSSFSASTGDRVTITCRASQGISSYLAWYQQKPGKAPKLLIYTASTLQSGVPSRFSGSGSGTDFTLTIRSLQSEDFATYYCQQYYSYPRTFGQGTKVEIK = 102

Given the binder mAb 125 (antibody, V domains shown) VH: EVQLVESGGGLVKTGGSLRLSCVASGFSFKKAWMNWVRQAPGKGLEWVGRIKRNTDGGTADYAAPVKGRFTLSRDDSKKTLYLQMNSLKTEDTAVYYCTTLDSSSRYVGYYYMDVWGKGTTVTVSS VL: DIQMTQSPSSVSASVGDRVIITCRASQDINNWLAWYQQKPGKVPKLLIYTASSLQSGVPSRFSGSGSGTDFTLTIGTLQPEDFATYYCQQAHSLPITFGQGTRLDIK , what is its reported Human primary T Cell Binding (FOI)? 180

// returns reported Human primary T Cell Binding (FOI) for input mAb 150 (antibody, V domains shown) VH: QVQLVQSGAEVKKPGASVKVSCKASGYTFTAYHTHWVRQAPGQGLEWMGWIYPKSGRTTYTQKFQGRVTMTRDTSISTVYMELSRLKSDDTAVYYCARVGALLFDYWGQGTLVTVSS VL: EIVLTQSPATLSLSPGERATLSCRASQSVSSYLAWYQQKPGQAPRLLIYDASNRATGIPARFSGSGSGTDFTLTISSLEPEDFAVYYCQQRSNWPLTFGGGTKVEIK 1.68
